# measuredTarget: KRAS-WT (Homo sapiens, UniProt P01116)
# Sequence (P01116 with tags, fused parts or gaps isoform P01116-2): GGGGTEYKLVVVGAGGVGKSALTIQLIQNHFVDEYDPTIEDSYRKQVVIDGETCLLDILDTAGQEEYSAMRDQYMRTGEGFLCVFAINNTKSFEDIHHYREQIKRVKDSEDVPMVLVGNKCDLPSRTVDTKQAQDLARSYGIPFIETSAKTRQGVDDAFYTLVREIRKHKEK
# assayOverview: SOS-catalyzed nucleotide exchange assay (Procedure A, TR-FRET), KRAS-WT
# Format: biochemical
# experimentalSetup: nucleotide exchange, read-out: KRAS WT GNE IC50
measureName: IC50 (µM)

- C[C@@]1(O)COCCN(c2nc(OC[C@@]34CCCN3C[C@H](F)C4)nc3sc4c(-c5c6c(cc7[nH]ncc57)CCC65CC5)nccc4c23)C1 [Ex-88]: 0.0372
- C[C@@]1(O)COCCN(c2nc(OC[C@@]34CCCN3C[C@H](F)C4)nc3sc4c(-c5c(C(F)F)ccc6[nH]ncc56)nccc4c23)C1 [Ex-134]: 7.21
- CN(C)C1COC2C[C@@]21COc1nc(N2CCOC[C@@](C)(O)C2)c2c(n1)sc1c(-c3c(C4(F)CC4)c(Cl)cc4[nH]ncc34)nccc12 (stereo partly drawn) [Ex-269]: 0.0249

---

Entries annotated with measured log10 IC50
# System: MKN-1 cells
# assayOverview: Cellular phospho-ERK assay, MKN-1 cells (amplified wild-type KRAS)
# Format: cell-based
# experimentalSetup: Homo sapiens, 2 hours compound incubation, read-out: MKN1 pERK IC50
measureName: log10 IC50 (log10 of the value in µM)

- CC(C)c1c(Cl)cc2[nH]ncc2c1-c1nccc2c1sc1nc(OC[C@@]34CCCN3C[C@H](F)C4)nc(N3CCOC[C@@](C)(O)C3)c12 [Ex-145]: -0.81
- C#Cc1c(F)ccc2cc3[nH]ncc3c(-c3nccc4c3sc3nc(OC[C@@]56CCCN5C[C@H](F)C6)nc(N5CCOC[C@@](C)(O)C5)c34)c12 [Ex-160]: -1.70
- C[C@@]1(O)COCCN(c2nc(OC[C@]3(CN4CC5(CCOCC5)C4)CC3(F)F)nc3sc4c(-c5c(C6(F)CC6)c(Cl)cc6[nH]ncc56)nccc4c23)C1 [Ex-248]: -1.44
- CCc1csc2cc3[nH]ncc3c(-c3nccc4c3sc3nc(OC[C@@]56CCCN5C[C@H](F)C6)nc(N5CCOC[C@@](C)(O)C5)c34)c12 [Ex-168]: -1.59
- C=C1CN2C[C@H](F)C[C@@]2(COc2nc(N3CCOC[C@@](C)(O)C3)c3c(n2)sc2c(-c4c(C5CC5)c(Cl)cc5[nH]ncc45)nccc23)C1 [Ex-223]: -1.37
- CN(C)C[C@@]1(COc2nc(N3CCOC[C@@](C)(O)C3)c3c(n2)sc2c(-c4c(C5CC5)c(C(F)(F)F)cc5[nH]ncc45)nccc23)CC1(F)F [Ex-206]: -1.64
- C[C@@]1(O)COCCN(c2nc(OC[C@]3(CN4CC5(COC5)C4)CC3(F)F)nc3sc4c(-c5c(C6CC6)c(Cl)cc6[nH]ncc56)nccc4c23)C1 [Ex-213]: -1.18
- C[C@@]1(O)COCCN(c2nc(OC[C@]34C[C@@H](F)CN3CC3(CC3)C4)nc3sc4c(-c5c(C6CC6)c(Cl)cc6[nH]ncc56)nccc4c23)C1 [Ex-220]: -0.77
- Cc1cc2[nH]ncc2c(-c2nccc3c2sc2nc(OC[C@@]45CCCN4C[C@H](F)C5)nc(N4CCOCC5(CC(C)O5)C4)c23)c1C(F)(F)F (some centres unmarked) [Ex-199]: -0.50
- C[C@@]1(O)COCCN(c2nc(OC[C@]3(CN4CC(CF)C4)CC3(F)F)nc3sc4c(-c5c(C6(F)CC6)c(Cl)cc6[nH]ncc56)nccc4c23)C1 [Ex-266]: -1.33
- C[C@@]1(O)COCCN(c2nc(OC[C@]3(CN4CC5(CCCOC5)C4)CC3(F)F)nc3sc4c(-c5c(C6(F)CC6)c(Cl)cc6[nH]ncc56)nccc4c23)C1 [Ex-249]: -1.44
- C[C@@]1(O)COCCN(c2nc(OC[C@]3(CN4CC5(CC(F)C5)C4)CC3(F)F)nc3sc4c(-c5c(C6CC6)c(Cl)cc6[nH]ncc56)nccc4c23)C1 [Ex-230]: -1.28
- C[C@@]1(O)COCCN(c2nc(OC[C@]3(CN4CCC4)CC3(F)F)nc3sc4c(-c5c(C6(F)CC6)c(Cl)cc6[nH]ncc56)nccc4c23)C1 [Ex-239]: -1.47
- C[C@@]1(O)COCCN(c2nc(OC[C@@]34CCCN3C[C@]3(CC3(F)F)C4)nc3sc4c(-c5c(C6CC6)c(Cl)cc6[nH]ncc56)nccc4c23)C1 [Ex-212]: -1.05
- CN(C)C1COC2C[C@@]21COc1nc(N2CCOC[C@@](C)(O)C2)c2c(n1)sc1c(-c3c(C4(F)CC4)c(Cl)cc4[nH]ncc34)nccc12 (some centres unmarked) [Ex-269]: -1.05
- C[C@@]1(O)COCCN(c2nc(OC[C@]3(CN4C[C@H]5CCCO[C@H]5C4)CC3(F)F)nc3sc4c(-c5c(C6(F)CC6)c(Cl)cc6[nH]ncc56)nccc4c23)C1 [Ex-255]: -1.60
- C[C@@]1(O)COCCN(c2nc(OC[C@@]34C[C@H](F)CN3CC3(CC3)C4)nc3sc4c(-c5c(C6CC6)c(Cl)cc6[nH]ncc56)nccc4c23)C1 [Ex-219]: -0.50
- C#Cc1csc2cc3[nH]ncc3c(-c3nccc4c3sc3nc(OC[C@@]56CCCN5C[C@H](F)C6)nc(N5CCOC[C@@](C)(O)C5)c34)c12 [Ex-163]: -1.68
- CN(C)C[C@@]1(COc2nc(N3CCOC[C@@](C)(O)C3)c3c(n2)sc2c(-c4c(C5(F)CC5)c(Cl)cc5[nH]ncc45)nccc23)CC1(F)F [Ex-132]: -1.35
- C[C@@]1(O)COCCN(c2nc(OC[C@@]34CCCN3C[C@H](F)C4)nc3sc4c(-c5c6cn[nH]c6cc6ccc(F)c(Cl)c56)nccc4c23)C1 [Ex-162]: -0.97
- C[C@H]1CCN1C[C@@]1(COc2nc(N3CCOC[C@@](C)(O)C3)c3c(n2)sc2c(-c4c(C5(F)CC5)c(Cl)cc5[nH]ncc45)nccc23)CC1(F)F [Ex-253]: -1.30
- C[C@@]1(O)COCCN(c2nc(OC[C@@]34CCCN3C[C@@]3(CC3(F)F)C4)nc3sc4c(-c5c(C6CC6)c(Cl)cc6[nH]ncc56)nccc4c23)C1 [Ex-211]: -1.08
- CN1CCC[C@@]2(COc3nc(N4CCOC[C@@](C)(O)C4)c4c(n3)sc3c(-c5c(C6CC6)c(C(F)(F)F)cc6[nH]ncc56)nccc34)CCC[C@@H]12 [Ex-205]: -1.77

---

Entries annotated with measured pIC50
# measuredTarget: KRAS-G12D (Homo sapiens, UniProt P01116, G12D)
# Sequence (P01116 with tags, fused parts or gaps isoform P01116-2 G12D): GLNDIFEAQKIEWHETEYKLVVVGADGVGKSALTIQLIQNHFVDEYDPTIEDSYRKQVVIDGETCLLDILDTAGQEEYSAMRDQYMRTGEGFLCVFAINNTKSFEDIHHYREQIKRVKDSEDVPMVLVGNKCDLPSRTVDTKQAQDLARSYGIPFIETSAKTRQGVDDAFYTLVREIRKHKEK
# assayOverview: SOS-catalyzed nucleotide exchange assay (Procedure A, TR-FRET), KRAS-G12D
# Assay type: biochemical
# experimentalSetup: nucleotide exchange, read-out: KRAS G12D GNE IC50
pIC50: −log10 of the molar value.
measureName: pIC50

• C[C@@]1(O)COCCN(c2nc(OC[C@@]34CCCN3C/C(=C\F)C4)nc3sc4c(-c5c(C6CC6)c(C(F)(F)F)cc6[nH]ncc56)nccc4c23)C1 = 7.38
• CO[C@@H]1C[C@@H](COc2nc(N3CCOC[C@@](C)(O)C3)c3c(n2)sc2c(-c4c(C5CC5)c(C(F)(F)F)cc5[nH]ncc45)nccc23)N(C)C1 = 7.41
• C[C@@]1(O)COCCN(c2nc(OC[C@]3(CN4CC5(CCOCC5)C4)CC3(F)F)nc3sc4c(-c5c(C6(F)CC6)c(Cl)cc6[nH]ncc56)nccc4c23)C1 = 8.51
• C#Cc1c(F)ccc2cc(N)nc(-c3nccc4c5c(N6CCOC[C@@](C)(O)C6)nc(OC[C@@]67CCCN6C[C@H](F)C7)nc5n(C)c34)c12 = 5.85
• C[C@@]1(O)COCCN(c2nc(OC[C@@]34CCCN3C[C@H](F)C4)nc3sc4c(-c5c(C(F)F)c(C(F)(F)F)cc6[nH]ncc56)nccc4c23)C1 = 6.90
• CN(C)C[C@@]1(COc2nc(N3CCOC[C@@](C)(O)C3)c3c(n2)oc2c(-c4c(C5CC5)c(Cl)cc5[nH]ncc45)nccc23)CC1(F)F = 6.95
• Cc1cc2[nH]ncc2c(-c2nc(C#N)cc3c2sc2nc(OC[C@@]45CCCN4C[C@H](F)C5)nc(N4CCOC[C@@](C)(O)C4)c23)c1C(F)(F)F = 6.52

---

# measuredTarget: KRAS-G12D (Homo sapiens, UniProt P01116, G12D)
# assayOverview: SOS-catalyzed nucleotide exchange assay (Procedure A, TR-FRET), KRAS-G12D
# Format: biochemical
# experimentalSetup: nucleotide exchange, read-out: KRAS G12D GNE IC50
pIC50: −log10 of the molar value.
Entries annotated with measured pIC50
measureName: pIC50

- Cc1cc2[nH]ncc2c(-c2nccc3c2sc2nc(OC[C@@]45CCCN4C[C@H](F)C5)nc(N4CCOC[C@@](C)(O)C4)c23)c1C(C)(C)C#N: 6.98
- Cc1cc2[nH]ncc2c(-c2nccc3c2sc2nc(OC[C@@]45CCCN4C[C@H](F)C5)nc(N4CCOC[C@@](C)(O)C4)c23)c1C1CC1: 8.13
- Cc1cc2[nH]ncc2c(-c2nccc3c2sc2nc(OC[C@@]45CCCN4C[C@H](F)C5)nc(N4CCOC[C@@](C)(O)C4)c23)c1C12CC(C1)C2: 7.86
- C[C@@]1(O)COCCN(c2nc(OC[C@@]34CCCN3C[C@H](F)C4)nc3c(F)c4c(-c5c(C6CC6)c(Cl)cc6[nH]ncc56)nccn4c23)C1: 7.94
- C[C@@]1(O)COCCN(c2nc(OC[C@@]34CCCN3C[C@H](F)C4)nc3sc4c(-c5c6cn[nH]c6cc6cccc(Cl)c56)nccc4c23)C1: 8.22
- C#Cc1c(F)ccc2cc3[nH]ncc3c(-c3nccc4c5c(N6CCOC[C@@](C)(O)C6)nc(OC[C@@]67CCCN6C[C@H](F)C7)nc5n(C)c34)c12: 7.21
- C[C@@]1(O)COCCN(c2nc(OC[C@@]34CCCN3C[C@H](F)C4)nc3sc4c(-c5c(C(F)F)c(Cl)cc6[nH]ncc56)nccc4c23)C1: 6.92
- C[C@@]1(O)COCCN(c2nc(OC[C@@]34CCCN3C[C@H](F)C4)nc3sc4c(-c5c(C6CCC6)c(Cl)cc6[nH]ncc56)nccc4c23)C1: 8.17
- Cc1cc2[nH]ncc2c(-c2nccc3c2sc2nc(OC[C@@]45CCCN4C[C@H](F)C5)nc(N4CCOC[C@@](C)(O)C4)c23)c1-c1ccco1: 7.81
- Cc1cc2[nH]ncc2c(-c2nccc3c2sc2nc(OC[C@@]45CCCN4C[C@H](F)C5)nc(N4CCOCC5(CCCO5)C4)c23)c1C(F)(F)F (stereo partly drawn): 6.70
- Cn1c2nc(OC[C@@]34CCCN3C[C@H](F)C4)nc(N3CCOC[C@@](C)(O)C3)c2c2ccnc(-c3c(C(F)F)c(Cl)cc4[nH]ncc34)c21 (single isomer, unassigned): 7.07
- Cc1cc2[nH]ncc2c(-c2nccc3c4c(N5CCOCC(O)C5)nc(OC[C@@]56CCCN5C[C@H](F)C6)nc4n(C)c23)c1C(F)(F)F (single isomer, unassigned): 5.84
- Cc1cc2[nH]ncc2c(-c2nccc3c2sc2nc(OC[C@@]45CCCN4C[C@H](F)C5)nc(NC4COC4)c23)c1C(F)(F)F: 6.23
- C#Cc1c(C)cc2[nH]ncc2c1-c1nccc2c3c(N4CCOC[C@@](C)(O)C4)nc(OC[C@@]45CCCN4C[C@H](F)C5)nc3n(C)c12 (single isomer, unassigned): 7.65
- CC1CCc2ccc(F)c(-c3nccc4c3sc3nc(OC[C@@]56CCCN5C[C@H](F)C6)nc(N5CCOC[C@@](C)(O)C5)c34)c21 (single isomer, unassigned): 6.83
- Cc1cc2c3c(N4CCOC[C@@](C)(O)C4)nc(OC[C@@]45CCCN4C[C@H](F)C5)nc3n(C)c2c(-c2c(C(F)(F)F)c(C)cc3[nH]ncc23)n1 (single isomer, unassigned): 6.20
- Cc1cc2[nH]ncc2c(-c2nccc3c2sc2nc(OC[C@@]45CCCN4C[C@H](F)C5)nc(NCC4COC4)c23)c1C(F)(F)F: 6.39
- Cc1cc2[nH]ncc2c(-c2nccc3c2sc2nc(OC[C@@]45CCCN4C[C@H](F)C5)nc(N4CCOC[C@@](C)(O)C4)c23)c1C1(F)CC1: 8.30
